# protocol: Rate of dissolution in H2O at 25° C. of rebaudioside A polymorph and amorphous forms
# Assay type: physicochemical
quantity-measured: Rate of dissolution in H2O at 25° C. (in words)

- compound: "C=C1C[C@@]23CC[C@H]4[C@@](C)(CCC[C@@]4(C)C(=O)O[C@@H]4O[C@H](CO)[C@@H](O)[C@H](O)[C@H]4O)[C@@H]2CC[C@]1(O[C@@H]1O[C@H](CO)[C@@H](O)[C@H](O[C@@H]2O[C@H](CO)[C@@H](O)[C@H](O)[C@H]2O)[C@H]1O[C@@H]1O[C@H](CO)[C@@H](O)[C@H](O)[C@H]1O)C3 [Form 3, rebaudioside A]"
  value-observed: "High"
- compound: "C=C1C[C@@]23CC[C@H]4[C@@](C)(CCC[C@@]4(C)C(=O)O[C@@H]4O[C@H](CO)[C@@H](O)[C@H](O)[C@H]4O)[C@@H]2CC[C@]1(O[C@@H]1O[C@H](CO)[C@@H](O)[C@H](O[C@@H]2O[C@H](CO)[C@@H](O)[C@H](O)[C@H]2O)[C@H]1O[C@@H]1O[C@H](CO)[C@@H](O)[C@H](O)[C@H]1O)C3 [Form 4, rebaudioside A]"
  value-observed: "High"
